assay: Tissue distribution of PZ-DHA and metabolites after intraperitoneal injection; type: in vivo, Balb/c female mice; conditions: female, Balb/c, mouse, spleen/serum, intraperitoneal, 100 mg/kg; 30 min; read-out: Tissue/serum ratio of PZ-DHA (Mean ± SD) Spleen/serum
experimental_readout: Kp at 30 min

compound	numeric_result
CC/C=C\C/C=C\C/C=C\C/C=C\C/C=C\C/C=C\CCC(=O)OC[C@H]1O[C@@H](Oc2cc(O)cc(O)c2C(=O)CCc2ccc(O)cc2)[C@H](O)[C@@H](O)[C@@H]1O [PZ-DHA, phloridzin docosahexaenoate]	3.17

====

assay: Serum pharmacokinetics after intraperitoneal injection; assay type: in vivo, Balb/c female mice; conditions: female, Balb/c, mouse, serum, ip; 100 mg/kg intraperitoneal, t = 0 to infinity; read-out: The area under the curve (AUC) (converted)

molecule	AUC, µM·h
CC/C=C\C/C=C\C/C=C\C/C=C\C/C=C\C/C=C\CCC(=O)OC[C@H]1O[C@@H](Oc2cc(O)cc(O)c2C(=O)CCc2ccc(O)cc2)[C@H](O)[C@@H](O)[C@@H]1O [PZ-DHA, phloridzin docosahexaenoate]	36.6
